Reported GI50, HELA.
Answers are plain numbers, in nM.

Request: Would you mind telling me what GI50 value was observed for COc1c(C)cc2c(c1O)[C@@H]1C3[C@@H]4SC[C@]5(NCCc6c5[nH]c5ccccc65)C(=O)COC[C@@H](c5c6c(c(C)c(OC(=O)C(F)(F)C(F)(F)C(F)(F)F)c54)OCO6)N3[C@@H](C#N)[C@H](C2)N1C (stereo partly shown) [Compound 51] ?
Result: 24

Request: Report GI50 for COc1c(C)cc2c(c1O)[C@@H]1C3[C@@H]4SC[C@]5(C(=O)COC[C@@H](c6c7c(c(C)c(OC(C)=O)c64)OCO7)N3[C@@H](C#N)[C@H](C2)N1C)c1[nH]c2ccccc2c1CCN5C (stereo partly shown) [Compound 14] please.
Result: 114

Request: Item COc1c(C)cc2c(c1O)[C@@H]1C3[C@@H]4SC[C@]5(NCCc6c5[nH]c5ccccc65)C(=O)COC[C@@H](c5c6c(c(C)c(OC(=O)OC(C)(C)C)c54)OCO6)N3[C@@H](C#N)[C@H](C2)N1C (stereo partly shown) [Compound 57] has what recorded GI50?
Result: 43.7

Others:
Request: Fill in: GI50 of C=COC(=O)Oc1c(C)c2c(c3c1[C@H]1SC[C@]4(NCCC5c6ccccc6NC54)C(=O)OC[C@@H]3N3C1[C@H]1c4c(cc(C)c(OC)c4OC(=O)OC=C)C[C@@H]([C@@H]3C#N)N1C)OCO2 (stereo partly shown) [Compound 68] is ___
Result: 32.5
